molecular target: Coagulation factor X (Homo sapiens); assay: Inhibition of factor 10a
Sequence (P00742 41-179 limits assumed): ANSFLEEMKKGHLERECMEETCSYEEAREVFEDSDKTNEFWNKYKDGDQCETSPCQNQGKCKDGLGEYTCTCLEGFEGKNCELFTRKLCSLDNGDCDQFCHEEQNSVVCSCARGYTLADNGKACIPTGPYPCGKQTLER
Sequence (P00742 235-488 limits assumed): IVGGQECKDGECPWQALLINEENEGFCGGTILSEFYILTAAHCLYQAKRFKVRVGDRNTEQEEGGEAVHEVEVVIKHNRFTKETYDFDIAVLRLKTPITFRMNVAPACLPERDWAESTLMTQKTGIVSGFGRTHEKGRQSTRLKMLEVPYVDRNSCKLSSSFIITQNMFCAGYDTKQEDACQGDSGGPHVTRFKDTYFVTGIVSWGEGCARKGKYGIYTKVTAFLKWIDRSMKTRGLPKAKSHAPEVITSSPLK
So I've got a bunch of compounds here, and I need their IC50 values.

Look over these answered cases.
CC(C)[C@H](NC(=O)[C@H](Cc1ccccc1)NNC(=O)Nc1ccccc1)C(=O)N[C@@H](CCCNC(=N)N)C(=O)c1nccs1 : > 20 µM
CC(C)C[C@H](NC(=O)NCc1ccc(F)cc1)C(=O)N[C@H](C(=O)N[C@@H](CCCNC(=N)N)C(=O)c1nccs1)C(C)C : > 20 µM

Query compound follows.
Jot down IC50 (Coagulation factor X (Homo sapiens)) of CC(C)C[C@H](NC(=O)NCc1ccc(Cl)c(Cl)c1)C(=O)N[C@H](C(=O)N[C@@H](CCCNC(=N)N)C(=O)c1nccs1)C1CCCCC1 .
> 200 µM
